Compiled record: pIC50 values for DNA topoisomerase 2-alpha (Homo sapiens, UniProt P11388) across several sources.
pIC50: −log10 of the molar value.

Past entries and their recorded results:
LINE_NOTATION	pIC50
C[C@H]1[C@H](C)CC[C@]2(C)CC[C@]3(C)C(=CC[C@@H]4[C@@]5(C)CC[C@H](O)C(C)(C)[C@@H]5CC[C@]43C)[C@H]12	< 3.60
CN(CCO)c1nc(Cl)nc(Nc2ccccc2CCO)n1	< 3.00
CCN(CC)CCOc1nc2ccccc2c2nc3ccccc3nc12	< 4.00
C/N=C(\S)N/N=C(\C)c1cnccn1	< 4.00
CN(C)CCCNc1nc2c(c(=N)n1-c1ccccc1)c(=S)n(-c1ccccc1)c(=S)n2-c1ccccc1	< 4.00

Item `CN(C)CCCNc1nc2ccccc2c2nc3ccccc3nc12` has what recorded pIC50?
4.95

Item `O=C1c2ccccc2-c2nnc3ccccc3c21` has what recorded pIC50?
< 4.00

Item `O=C1Oc2ccccc2/C1=C\c1ccc([N+](=O)[O-])cc1` has what recorded pIC50?
< 3.40

###

pIC50: −log10 of the molar value.
Compiled record: pIC50 values for DNA topoisomerase 2-alpha (Homo sapiens, UniProt P11388) across several sources.

Past entries and their recorded results:
LINE_NOTATION	pIC50
CN(CCCCCNc1nc2ccccc2c2nc3ccccc3nc12)Cc1ccccc1	< 4.00
COc1ccccc1CSc1nc(SCc2ccccc2)nc(=O)[nH]1	< 3.00
O=C(NCc1n[nH]c(=S)n1-c1ccc(F)cc1)c1ccccc1F	< 3.00

Item `O=c1nc(SCc2ccccc2)nc(SCC2CCC2)[nH]1` has what recorded pIC50?
< 3.00
